Exercise: for every item that follows, state its recorded log10(viscosity).
conditions: 313.15 K; 101 kPa
Heads up: the numbers are on a log10 scale; they represent viscosity in mPa·s.

Please fill in: log10(viscosity) reported for CCCC[n+]1ccccc1.N#C[N-]C#N = 1.29

Please fill in: log10(viscosity) reported for CC[N+](C)(CC)CCOC.F[B-](F)(F)F = 1.95

Please fill in: log10(viscosity) reported for CC[n+]1ccn(C)c1.N#C[N-]C#N = 1.00

Please fill in: log10(viscosity) reported for CCN(CC)CC = -0.52

Please fill in: log10(viscosity) reported for CCCC(C)=O = -0.39

Please fill in: log10(viscosity) reported for CCCCCCCCCCCCCC[P+](CCCCCC)(CCCCCC)CCCCCC.O=S(=O)([N-]S(=O)(=O)C(F)(F)F)C(F)(F)F = 2.18

----------
assay: xn = mol fraction of the nth substance listed; settings: 298.15 K; 101 kPa; x2 = 0.2
Tick Condition met if viscosity is 0.8 mPa·s or greater. Tick Condition not met if viscosity is less than 0.8 mPa·s.

Assess whether reported viscosity for ClC(Cl)(Cl)Cl + Cc1ccc(C)cc1 sits at 0.8 mPa·s or higher. Condition met

Assess whether reported viscosity for ClC(Cl)(Cl)Cl + CO sits at 0.8 mPa·s or higher. Condition met

Assess whether reported viscosity for ClC(Cl)(Cl)Cl + Clc1ccccc1 sits at 0.8 mPa·s or higher. Condition met

Assess whether reported viscosity for ClC(Cl)(Cl)Cl + CCCCCCCCCCO sits at 0.8 mPa·s or higher. Condition met

Assess whether reported viscosity for CCCC(C)=O + CCCCN(CCCC)CCCC sits at 0.8 mPa·s or higher. Condition not met

Assess whether reported viscosity for ClC(Cl)(Cl)Cl + c1ccccc1 sits at 0.8 mPa·s or higher. Condition met

----------
conditions: 293.15 K; 101 kPa
Exercise: for every item that follows, state its recorded log10 viscosity.
Heads up: the numbers are on a log10 scale; they represent viscosity in mPa·s.

Please fill in: log10 viscosity reported for CC[N+](C)(CC)CCOC.F[B-](F)(F)F = 2.36

Please fill in: log10 viscosity reported for CCCOC(C)=O = -0.23

Please fill in: log10 viscosity reported for CCCC(C)=O = -0.30

Please fill in: log10 viscosity reported for CCN(CC)CC = -0.43

Please fill in: log10 viscosity reported for CC1CCCCC1O (stereo unspecified) = 1.34

Please fill in: log10 viscosity reported for CCCC[n+]1ccccc1.N#C[N-]C#N = 1.61

----------
assay: xn = mol fraction of the nth substance listed; conditions: 298.15 K; 101 kPa; x2 = 0.1
measured.metric: viscosity (mPa·s)
The reply should be a number in mPa·s, with the unit left off.

Please fill in: viscosity reported for CCCC(C)=O + CCCCN(CCCC)CCCC = 0.521

Please fill in: viscosity reported for ClC(Cl)(Cl)Cl + CCCO = 0.903

Please fill in: viscosity reported for ClC(Cl)(Cl)Cl + CC(=O)O = 0.84

Please fill in: viscosity reported for ClC(Cl)(Cl)Cl + CCO = 0.872

Please fill in: viscosity reported for ClC(Cl)(Cl)Cl + CCCCO = 0.918

Please fill in: viscosity reported for ClC(Cl)(Cl)Cl + Cc1ccccc1 = 0.8643

Please fill in: viscosity reported for ClC(Cl)(Cl)Cl + Cc1ccc(C)cc1 = 0.87

----------
test: xn = mol fraction of the nth substance listed; conditions: 298.15 K; 101 kPa; x2 = 0.8
Tick t if viscosity is 0.8 mPa·s or greater. Tick f if viscosity is less than 0.8 mPa·s.

Assess whether reported viscosity for ClC(Cl)(Cl)Cl + Cc1ccccc1 sits at 0.8 mPa·s or higher. f

Assess whether reported viscosity for ClC(Cl)(Cl)Cl + Clc1ccccc1 sits at 0.8 mPa·s or higher. f

Assess whether reported viscosity for ClC(Cl)(Cl)Cl + c1ccccc1 sits at 0.8 mPa·s or higher. f

Assess whether reported viscosity for ClC(Cl)(Cl)Cl + Cc1ccc(C)cc1 sits at 0.8 mPa·s or higher. f

Assess whether reported viscosity for ClC(Cl)(Cl)Cl + CCCCCCCCCCO sits at 0.8 mPa·s or higher. t

----------
Exercise: for every item that follows, state its recorded log10(viscosity).
settings: 323.15 K; 101 kPa
Heads up: the numbers are on a log10 scale; they represent viscosity in mPa·s.

Please fill in: log10(viscosity) reported for CCCC(C)=O = -0.45

Please fill in: log10(viscosity) reported for CCN(CC)CC = -0.56

Please fill in: log10(viscosity) reported for CCCC[n+]1ccccc1.N#C[N-]C#N = 1.16

Please fill in: log10(viscosity) reported for ClC(Cl)(Cl)Cl = -0.15

Please fill in: log10(viscosity) reported for CC[N+](C)(CC)CCOC.F[B-](F)(F)F = 1.76

----------
settings: 303.15 K; 101 kPa
Tick Satisfied if viscosity is 30 mPa·s or greater. Tick Not satisfied if viscosity is less than 30 mPa·s.

Assess whether reported viscosity for CCn1cc[n+](C)c1.O=C([O-])[C@@H]1CCCN1 sits at 30 mPa·s or higher. Satisfied

Assess whether reported viscosity for CC[N+](C)(CC)CCOC.F[B-](F)(F)F sits at 30 mPa·s or higher. Satisfied

Assess whether reported viscosity for CCCC[n+]1ccccc1.N#C[N-]C#N sits at 30 mPa·s or higher. Not satisfied

Assess whether reported viscosity for CCN(CC)CC sits at 30 mPa·s or higher. Not satisfied

Assess whether reported viscosity for CCOC(=O)c1ccccc1O sits at 30 mPa·s or higher. Not satisfied

Assess whether reported viscosity for CCCOC(C)=O sits at 30 mPa·s or higher. Not satisfied

----------
conditions: 318.15 K; 101 kPa
Exercise: for every item that follows, state its recorded viscosity.
The reply should be a number in mPa·s, with the unit left off.

Please fill in: viscosity reported for CC[N+](C)(CC)CCOC.F[B-](F)(F)F = 70.53

Please fill in: viscosity reported for CCCOC(C)=O = 0.439

Please fill in: viscosity reported for CCCC(C)=O = 0.3782

Please fill in: viscosity reported for CCCC[n+]1ccccc1.N#C[N-]C#N = 16.73

----------
conditions: 298.15 K; 101 kPa
± gives the uncertainty stated by the source.
Exercise: for every item that follows, state its recorded viscosity.
I'd appreciate it if you included the unit after the number.

Please fill in: viscosity reported for CCN(CC)CC = 0.344 ± 0.007 mPa·s

Please fill in: viscosity reported for CCn1cc[n+](C)c1.O=C([O-])[C@@H]1CCCN1 = 1195 ± 130 mPa·s

Please fill in: viscosity reported for CCCC[n+]1ccccc1.N#C[N-]C#N = 33.27 ± 0.31 mPa·s

Please fill in: viscosity reported for CC[N+](C)(CC)CCOC.F[B-](F)(F)F = 178.6 ± 7.9 mPa·s

----------
Exercise: for every item that follows, state its recorded viscosity.
test: xn = mol fraction of the nth substance listed; conditions: 298.15 K; 101 kPa; x2 = 0.6
± gives the uncertainty stated by the source.
I'd appreciate it if you included the unit after the number.

Please fill in: viscosity reported for ClC(Cl)(Cl)Cl + Cc1ccc(C)cc1 = 0.7087 ± 0.009 mPa·s

Please fill in: viscosity reported for ClC(Cl)(Cl)Cl + Cc1ccccc1 = 0.6705 ± 0.0085 mPa·s

Please fill in: viscosity reported for ClC(Cl)(Cl)Cl + Clc1ccccc1 = 0.787 ± 0.008 mPa·s

Please fill in: viscosity reported for ClC(Cl)(Cl)Cl + CCCCCCO = 2.317 ± 0.06 mPa·s

Please fill in: viscosity reported for ClC(Cl)(Cl)Cl + c1ccccc1 = 0.714 ± 0.0072 mPa·s

----------
Exercise: for every item that follows, state its recorded viscosity.
assay: xn = mol fraction of the nth substance listed; details: 298.15 K; 101 kPa; x2 = 0.5
± gives the uncertainty stated by the source.
I'd appreciate it if you included the unit after the number.

Please fill in: viscosity reported for ClC(Cl)(Cl)Cl + Cc1ccccc1 = 0.7049 ± 0.0089 mPa·s

Please fill in: viscosity reported for CCOC(=O)c1ccccc1O + CCCCCOC(C)=O = 1.045 ± 0.01 mPa·s

Please fill in: viscosity reported for ClC(Cl)(Cl)Cl + CCCCCCO = 1.931 ± 0.05 mPa·s

Please fill in: viscosity reported for ClC(Cl)(Cl)Cl + Cc1ccc(C)cc1 = 0.7372 ± 0.0093 mPa·s

----------
assay: xn = mol fraction of the nth substance listed; conditions: 298.15 K; 101 kPa; x2 = 0.4
measured.metric: viscosity (mPa·s)
The reply should be a number in mPa·s, with the unit left off.

Please fill in: viscosity reported for ClC(Cl)(Cl)Cl + Cc1ccccc1 = 0.7415

Please fill in: viscosity reported for ClC(Cl)(Cl)Cl + c1ccccc1 = 0.773

Please fill in: viscosity reported for ClC(Cl)(Cl)Cl + Clc1ccccc1 = 0.81

Please fill in: viscosity reported for ClC(Cl)(Cl)Cl + Cc1ccc(C)cc1 = 0.7675
